# target_or_system: recombinant mouse SAA 1.1 (mSAA) (Mus musculus)
# Construct: cDNA in pET-15b, expressed in E. coli Rosetta, Ni Sepharose purified
# Sequence (P05366 20-122): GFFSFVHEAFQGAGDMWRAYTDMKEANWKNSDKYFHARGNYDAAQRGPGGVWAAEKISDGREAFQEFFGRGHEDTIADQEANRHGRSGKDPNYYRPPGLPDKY
# experiment_description: quantum-dot fluorescence imaging of amyloid aggregation inhibition (MSHTS)
quantity_measured: EC50
Please answer using the number first and the unit second.

Query for recombinant mouse SAA 1.1 (mSAA) (Mus musculus): what EC50 does the record show for O=C(/C=C/c1ccc(O)c(O)c1)O[C@H](Cc1ccc(O)c(O)c1)C(=O)O ?
33.2 µM
